Experimental Target: T1, amylin receptors of rat nucleus accumbens membranes (rat)
T1 chain 1: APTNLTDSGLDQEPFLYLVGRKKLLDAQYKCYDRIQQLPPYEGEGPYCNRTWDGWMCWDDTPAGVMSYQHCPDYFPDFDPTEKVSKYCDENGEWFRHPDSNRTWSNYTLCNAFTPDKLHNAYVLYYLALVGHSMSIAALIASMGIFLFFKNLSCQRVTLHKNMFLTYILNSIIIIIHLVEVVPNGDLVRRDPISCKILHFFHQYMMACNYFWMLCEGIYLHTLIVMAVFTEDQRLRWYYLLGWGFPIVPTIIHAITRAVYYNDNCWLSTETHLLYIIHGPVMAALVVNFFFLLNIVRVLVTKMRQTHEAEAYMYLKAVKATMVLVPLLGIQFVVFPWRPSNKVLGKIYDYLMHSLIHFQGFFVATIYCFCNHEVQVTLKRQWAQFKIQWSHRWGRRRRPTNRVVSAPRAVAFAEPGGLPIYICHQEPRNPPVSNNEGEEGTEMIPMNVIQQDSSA
T1 chain 2: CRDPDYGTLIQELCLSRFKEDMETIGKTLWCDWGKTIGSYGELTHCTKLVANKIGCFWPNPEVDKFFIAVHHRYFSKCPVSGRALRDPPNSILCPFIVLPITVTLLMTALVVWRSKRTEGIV
Assay Procedure: radioligand competition, 125I-BH-rat amylin on rat nucleus accumbens membranes
Property Name: IC50 (nM)

[a] XLSTAVLGRLSQELHRLQTYPRTNTGSNTY (N-terminal acetyl (Ac-Leu)) [Compound 6]
[b] XLSTSVLGRLSQELHRLQTYPRTNTGSNTY (N-terminal acetyl (Ac-Leu)) [Compound 3]
[c] LSTCVLGRLSQELHRLQTYPRTNTGSNTY (Synthetic 29-residue peptide) [Compound 1]
Query string: Sort entries by IC50 from minimum to maximum value. Record the ranking as a list of labels in the requested order.
Result string: c, a, b
(c: 0.25 nM, a: 18.6 nM, b: 37 nM)
